Test: Phase 1 Stage 1 clinical pharmacokinetics of SC ZA co-administered with rHuPH20
Assay type: in vivo, human
Conditions: human, serum, sc, serum; ZA 5 mg SC infusion + 24000 Units rHuPH20; 8 h post infusion; individual subjects; read-out: Zoledronic Acid Concentration
PROPERTY NAME: concentration at 8 h (ng/mL)
Kindly answer with a numeric value in ng/mL, unit omitted.

Q: For the compound `O=P(O)(O)C(O)(Cn1ccnc1)P(=O)(O)O` , what concentration at 8 h is on record?
A: 9.44

---

Assay: Phase 1 Stage 1 clinical pharmacokinetics of SC ZA co-administered with rHuPH20
Format: in vivo, human
Conditions: human, serum, sc, 0.0776 mg/kg, Subj 70; ZA 0.0776 mg/kg SC; inf […]; PH20 2928 U
PROPERTY NAME: Cmax (ng/mL)
Give a bare numeral; the unit ng/mL is implied.

Q: // lookup Cmax for `O=P(O)(O)C(O)(Cn1ccnc1)P(=O)(O)O`
A: 215
